Target: T1, human GITR (human, UniProt Q9Y5U5 26-241)
T1 sequence: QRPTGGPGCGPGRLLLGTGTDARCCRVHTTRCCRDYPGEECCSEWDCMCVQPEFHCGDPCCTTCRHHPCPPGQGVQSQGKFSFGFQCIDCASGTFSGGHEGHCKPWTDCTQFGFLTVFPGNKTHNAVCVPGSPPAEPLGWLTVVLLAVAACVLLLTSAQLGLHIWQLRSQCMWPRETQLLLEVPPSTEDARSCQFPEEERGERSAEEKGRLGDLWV
Assay: cell-based or functional assay
Below is a list of entries, each paired with its recorded Proliferation (Fold over CD3) value.
All answers are understood in fold over CD3, so give the number only.

Given item 41G5v2 (antibody, human IgG1, kappa, V domains shown, Engineered variant; also called Ab56; SS-13809) VH: QVQLVESGGGVVQPGRSLRLSCAASGFTFSSYGMHWVRQAPGKGLEWVAVIWYPGSNKYYAESVKGRFTISRDNSKNTLYLQMNSLRAEDTAVYYCARGGELGRYYYYGMDVWGQGTTVTVSS VL: DIQMTQSPSSLSASVGDRVTVTCRASQGIRNDLGWYQQKPGKAPKRLIYAASSLQSGVPSRFSGSGSGTEFTLTISSLQPEDFATYYCLQHNNYPWTFGQGTKVDIKR , the value recorded as its Proliferation (Fold over CD3) is 3.5

// sample 9H6v1 (antibody, human IgG1, kappa, V domains shown, Engineered variant; also called Ab44; SS-16943) VH: QVQLVESGGGVVQPGRSLRLSCVASGFTFSSYGMHWIRQAPGKGLEWVAVIWYEGSNKYYADSVKGRFTISRDNSKNTLYLQMNSLRAEDTAVYYCARGGRLGKDYYSGMDVWGQGTTVTVSS VL: DIQMTQSPSSLSASVGDRVTITCRASQGIRNDLGWYQQKPGKAPKRLIYATSSLQSGVPSRFSGSGSGTEFTLTISSLQPEDFATYYCLQHNTYPWTFGQGTKVEIKR , its Proliferation (Fold over CD3) was 3.2

Recorded result, 33C9v3 (antibody, human IgG1, kappa, V domains shown, Engineered variant; also called Ab52; SS-16949) VH: QVQVVESGGGVVQPGRSLRLSCAASGFTFSSYGMHWVRQAPGKGLEWVSVIWYEGSNKYYADTVKGRFTISRDNSKNTLYLQMNSLRAEDTAVYYCARGGLLGYYYYYGMDVWGQGTTVTVSS VL: DIQMTQSPSSLSASVGDRVTITCRASQGIRNDLGWYQQKPGKAPKRLIYDASSLQSGVPSRFSGSGSGTEFTLTISSLQPEDFATYYCLQHHSYPWTFGQGTKVEIKR , Proliferation (Fold over CD3): 3.1
